test-target: UniProt:O42275
Sequence (O42275 24-633): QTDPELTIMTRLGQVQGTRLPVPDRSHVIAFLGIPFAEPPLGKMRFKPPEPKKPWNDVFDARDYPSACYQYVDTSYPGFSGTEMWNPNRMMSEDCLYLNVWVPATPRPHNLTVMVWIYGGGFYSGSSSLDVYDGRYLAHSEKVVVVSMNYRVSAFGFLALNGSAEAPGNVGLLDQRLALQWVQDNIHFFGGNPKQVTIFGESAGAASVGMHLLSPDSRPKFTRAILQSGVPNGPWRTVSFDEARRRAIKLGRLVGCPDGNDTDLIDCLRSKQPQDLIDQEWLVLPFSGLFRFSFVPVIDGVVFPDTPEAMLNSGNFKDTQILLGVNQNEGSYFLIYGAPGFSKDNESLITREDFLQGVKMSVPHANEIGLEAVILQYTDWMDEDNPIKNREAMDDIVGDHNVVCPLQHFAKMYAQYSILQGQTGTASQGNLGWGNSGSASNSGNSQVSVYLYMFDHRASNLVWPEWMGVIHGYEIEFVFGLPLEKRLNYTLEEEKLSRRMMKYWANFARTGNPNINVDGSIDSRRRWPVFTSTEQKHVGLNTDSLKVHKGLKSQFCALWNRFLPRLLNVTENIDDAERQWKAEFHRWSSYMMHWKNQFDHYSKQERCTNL
test-details: biochemical
measurement-setup: means ± standard deviation of triplicate independent experiments; substrate acetylthiocholine iodide; 37°C, pH 8.0
# maps each entry to its IC50
The reply should be a number in µM, with the unit left off.

[
  {
    "sample-smiles": "C=CCOc1cc2oc3ccccc3c(=O)c2c(O)c1CN1CCCCC1",
    "IC50, µM": 3.7
  }
]

Enquiry: Give its IC50 value. Item: COc1cc2oc3ccccc3c(=O)c2c(O)c1CN(C)C
Return: 2.34

Enquiry: Queued: COc1cc2oc3ccccc3c(=O)c2c(O)c1CN1CCCC1
Return: 4.2

Enquiry: Queued: CCN(CC)Cc1c(OC)cc2oc3ccccc3c(=O)c2c1O
Return: 2.4

Enquiry: Queued: C=CCOc1cc2oc3ccccc3c(=O)c2c(O)c1CN(C)C
Return: 5.84

Enquiry: Queued: CN(C)Cc1c(O)cc2oc3ccccc3c(=O)c2c1O
Return: 107

Enquiry: Queued: C=CCOc1cc2oc3ccccc3c(=O)c2c(O)c1CN1CCCC1
Return: 4.36

Enquiry: Queued: COc1cc2oc3ccccc3c(=O)c2c(O)c1CN1CCOCC1
Return: 7.76

Enquiry: Queued: O=c1c2ccccc2oc2cc(O)c(CN3CCCC3)c(O)c12
Return: 81.9

----------
test-target: horse-serum BuChE (EC3.1.1.8) (Equus caballus, UniProt P81908)
Sequence (P81908 whole entry): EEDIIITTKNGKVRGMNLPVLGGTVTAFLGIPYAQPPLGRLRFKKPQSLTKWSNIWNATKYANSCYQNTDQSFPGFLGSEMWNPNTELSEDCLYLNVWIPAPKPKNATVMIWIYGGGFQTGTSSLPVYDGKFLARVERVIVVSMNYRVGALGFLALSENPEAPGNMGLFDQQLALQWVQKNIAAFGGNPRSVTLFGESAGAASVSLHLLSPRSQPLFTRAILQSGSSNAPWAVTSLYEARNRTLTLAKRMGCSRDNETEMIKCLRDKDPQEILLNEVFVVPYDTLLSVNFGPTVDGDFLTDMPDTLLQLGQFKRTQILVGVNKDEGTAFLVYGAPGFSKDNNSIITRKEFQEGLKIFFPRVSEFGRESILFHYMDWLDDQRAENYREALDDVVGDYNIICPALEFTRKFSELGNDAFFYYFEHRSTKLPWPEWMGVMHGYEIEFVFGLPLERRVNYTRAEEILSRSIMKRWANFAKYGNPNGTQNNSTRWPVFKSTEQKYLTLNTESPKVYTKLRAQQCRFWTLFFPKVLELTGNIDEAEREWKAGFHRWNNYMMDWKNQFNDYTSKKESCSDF
test-details: biochemical
Format: biochemical
measurement-setup: substrate butyrylthiocholine; 37°C, pH 8.0
# maps each entry to its IC50
The reply should be a number in µM, with the unit left off.

Look over these answered cases.
[
  {
    "compound": "CN(C)Cc1c(O)cc2oc3ccccc3c(=O)c2c1O [1a]",
    "test-target": "horse-serum BuChE (EC3.1.1.8) (Equus caballus, UniProt P81908)",
    "recorded-value": 62.9
  },
  {
    "compound": "CC(C)=CCOc1cc2oc3ccccc3c(=O)c2c(O)c1CN1CCCCC1 [4d]",
    "test-target": "horse-serum BuChE (EC3.1.1.8) (Equus caballus, UniProt P81908)",
    "recorded-value": 5.61
  }
]

Enquiry: Give its IC50 value. Item: CCN(CC)Cc1c(O)cc2oc3ccccc3c(=O)c2c1O [1b]
Return: 37

Enquiry: Queued: O=c1c2ccccc2oc2cc(O)c(CN3CCCCC3)c(O)c12 [1d]
Return: 43

Enquiry: Queued: CC(C)=CCOc1cc2oc3ccccc3c(=O)c2c(O)c1CN(C)C [4a]
Return: 1.49

----------
test-target: horse-serum BuChE (EC3.1.1.8) (Equus caballus, UniProt P81908)
test-details: biochemical
Format: biochemical
measurement-setup: substrate butyrylthiocholine; 37°C, pH 8.0
measured-property: IC50 (µM)
The reply should be a number in µM, with the unit left off.

Look over these answered cases.
[
  {
    "compound": "C=CCOc1cc2oc3ccccc3c(=O)c2c(O)c1CN1CCCC1 [3c]",
    "measured-property": "IC50",
    "recorded-value": 3.05
  },
  {
    "compound": "O=c1c2ccccc2oc2cc(O)c(CN3CCCC3)c(O)c12 [1c]",
    "measured-property": "IC50",
    "recorded-value": 35.5
  },
  {
    "compound": "COc1cc2oc3ccccc3c(=O)c2c(O)c1CN1CCCC1 [2c]",
    "measured-property": "IC50",
    "recorded-value": 7.21
  },
  {
    "compound": "CC(C)=CCOc1cc2oc3ccccc3c(=O)c2c(O)c1CN1CCCC1 [4c]",
    "measured-property": "IC50",
    "recorded-value": 2.89
  }
]

Turning now to a further record.
Enquiry: Give its IC50 value. Item: CCN(CC)Cc1c(OC)cc2oc3ccccc3c(=O)c2c1O [2b]
Return: 6.79
